target: ABCB1 (Homo sapiens, UniProt P08183)
Sequence (P08183 whole entry): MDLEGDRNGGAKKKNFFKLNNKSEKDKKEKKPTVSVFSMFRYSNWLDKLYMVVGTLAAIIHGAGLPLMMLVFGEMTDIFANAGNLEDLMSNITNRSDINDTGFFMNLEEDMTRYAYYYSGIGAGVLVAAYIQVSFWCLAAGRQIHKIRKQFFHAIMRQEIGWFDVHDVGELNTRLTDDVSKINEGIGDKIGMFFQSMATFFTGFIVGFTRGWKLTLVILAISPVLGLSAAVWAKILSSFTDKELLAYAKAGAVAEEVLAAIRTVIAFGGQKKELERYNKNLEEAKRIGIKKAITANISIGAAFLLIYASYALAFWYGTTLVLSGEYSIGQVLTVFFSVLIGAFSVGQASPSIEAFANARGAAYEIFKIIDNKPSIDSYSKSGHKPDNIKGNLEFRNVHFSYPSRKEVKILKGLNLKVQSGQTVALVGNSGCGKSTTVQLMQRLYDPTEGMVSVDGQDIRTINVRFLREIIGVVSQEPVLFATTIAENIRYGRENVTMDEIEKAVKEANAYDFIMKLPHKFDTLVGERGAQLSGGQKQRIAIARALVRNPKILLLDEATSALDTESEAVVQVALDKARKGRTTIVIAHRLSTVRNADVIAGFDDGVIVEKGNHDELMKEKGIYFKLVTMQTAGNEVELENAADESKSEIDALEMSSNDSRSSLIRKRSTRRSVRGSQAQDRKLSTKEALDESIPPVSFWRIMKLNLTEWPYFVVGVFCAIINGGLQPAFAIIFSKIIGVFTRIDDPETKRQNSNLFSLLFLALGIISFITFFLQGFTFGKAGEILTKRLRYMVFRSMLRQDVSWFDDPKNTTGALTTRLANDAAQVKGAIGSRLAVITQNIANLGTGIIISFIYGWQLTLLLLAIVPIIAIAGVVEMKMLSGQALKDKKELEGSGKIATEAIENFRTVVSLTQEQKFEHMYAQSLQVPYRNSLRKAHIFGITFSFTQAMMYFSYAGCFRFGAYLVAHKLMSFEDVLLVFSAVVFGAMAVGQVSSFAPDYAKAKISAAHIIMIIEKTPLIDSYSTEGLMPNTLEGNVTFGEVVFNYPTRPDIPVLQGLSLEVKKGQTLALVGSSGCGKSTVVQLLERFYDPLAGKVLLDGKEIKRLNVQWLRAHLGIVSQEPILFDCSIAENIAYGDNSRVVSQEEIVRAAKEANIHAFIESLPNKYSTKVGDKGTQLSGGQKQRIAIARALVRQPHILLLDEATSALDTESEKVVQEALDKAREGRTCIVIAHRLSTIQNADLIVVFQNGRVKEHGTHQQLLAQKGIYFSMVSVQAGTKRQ
pIC50: −log10 of the molar value.

{"Compound": "CO[C@@H]1[C@H](N(C)C(=O)c2ccccc2)C[C@H]2O[C@]1(C)n1c3ccccc3c3c4c(c5c6ccccc6n2c5c31)C(=O)NC4 [midostaurin]", "pIC50": "~5.00"}
